Recorded Growth Rate for the following molecules
Test system: Fibroblast
measurement-notes: Incucyte cell viability with human fibroblast; further: unitless GR value; below 1 slowed growth and below 0 cell loss
Type: toxicity, cell-based
assay-conditions: 12 h, 10 µM, compound concentration 10 uM, replicate number 2
Field format: numeric only.

{"molecule": "O=C(NCc1ccc(F)cc1)C1CCN(S(=O)(=O)c2cc(Cl)cc(Cl)c2)CC1", "Growth Rate": 0.3}
{"molecule": "COc1cccc(CNc2ccc(S(=O)(=O)Nc3nc4ccccc4s3)cc2)c1O", "Growth Rate": 0.76}
{"molecule": "O=C(O)c1ccc(-c2c[nH]c3ncc(-c4ccccc4)cc23)cc1C1CCCC1", "Growth Rate": 0.77}
{"molecule": "Cc1cc(C)cc(C(=O)NOCCCCCC(=O)NO)c1", "Growth Rate": 0.86}
{"molecule": "Fc1cccc(-n2cnc3c(NCc4nc5ccc(F)c(F)c5[nH]4)nc(N4CCOCC4)nc32)c1", "Growth Rate": -0.11}

I would be grateful if you could share the reported Growth Rate for CCOC(=O)C1Cc2ccccc2CN1C(=O)c1ccc(SC)s1 (configuration not stated) .
0.1

Try O=c1[nH]c(CS[C@H]2CC[C@H](O)CC2)nc2cc(OCC3CC3)cc(F)c12 next.
0.67

Try COc1ccccc1[C@@H]1CNCCC12CCN(C(=O)[C@](OC)(c1ccccc1)C(F)(F)F)CC2 next.
0.7

Try Cn1cnc(Cn2ccc3ccc(CNCc4[nH]c5ccccc5c4[C@@H]4NC(=O)c5ccc(O)cc54)cc32)c1 next.
0.75

Try Cc1ncc(C(=O)Nc2cc(C(C)(C)C)on2)cc1-n1cc(-c2cnn(C)c2C)nn1.Cl next.
0.79

Try O=C(Cc1ccccc1)Nc1nnc(N2C[C@H]3C[C@@H]2CN3c2cccnn2)s1 next.
0.18

* * *

Test system: Fibroblast
measurement-notes: Incucyte cell viability with human fibroblast; further: unitless GR value; below 1 slowed growth and below 0 cell loss
Assay type: toxicity, cell-based
assay-conditions: 12 h, 10 µM, compound concentration 10 uM, replicate number 2
Flag rule - Growth Rate less than 0.7 flags y; the remaining entries get n.

{"molecule": "COc1ccccc1N1CCN(c2ncnc3c2cnn3-c2ccccc2)CC1", "label-value": "n"}
{"molecule": "OCC1OC(n2cnc3cc(Cl)c(Cl)cc32)C(O)C1O (stereo not given)", "label-value": "y"}
{"molecule": "COc1ccc(OC)c(-c2ccc(NC(=O)c3ccncc3F)cc2)c1", "label-value": "n"}
{"molecule": "O=C(O)CCC/C=C\\C[C@@H]1[C@@H](/C=C/[C@@H](O)COc2cccc(C(F)(F)F)c2)[C@H](O)C[C@@H]1O", "label-value": "y"}
{"molecule": "N[C@@H]1CCCN(c2c(/C=C3\\SC(=O)NC3=O)cccc2-c2ccccc2)C1", "label-value": "y"}
{"molecule": "CC(=O)O[C@H]1C(=O)[C@@]2(C)[C@H]([C@H](OC(=O)c3ccccc3)[C@]3(O)C[C@H](OC(=O)[C@H](O)[C@@H](NC(=O)c4ccccc4)c4ccccc4)C(C)=C1C3(C)C)[C@]1(OC(C)=O)CO[C@@H]1C[C@@H]2O", "label-value": "y"}
{"molecule": "N#Cc1ccnc(Nc2cc(C3CCN(C4COC4)CC3)cc(N3CCC(F)(F)C3)n2)c1", "label-value": "y"}
{"molecule": "CN[C@@H](C)C(=O)N[C@H]1CN(C(=O)CC(C)C)CC[C@H]2CC[C@@H](C(=O)NC(c3ccccc3)c3ccccc3)N2C1=O", "label-value": "n"}

Determine whether this molecule shows Growth Rate lower than 0.7 (ties excluded): Cl.NCC(O)c1ccc(O)cc1 (stereo not given) [OCTOPAMINE HYDROCHLORIDE]
n

Try COC1(C#Cc2ccc(Cl)c(-c3ncc4c(n3)-c3sc(NC(C)=O)nc3CC4)c2)CCN(C)CC1 next.
y

Try Cl.Cl.O=[N+]([O-])c1ccc(CN2CCOCCOCCN(Cc3ccc([N+](=O)[O-])cc3)CCOCC2)cc1 next.
y

Try COc1cc(-c2cc3ncccc3c(OC[C@H]3CNC(=O)C3)n2)cc(OC)c1OC1CCOCC1.O=C(O)C(F)(F)F next.
n

Try CCCN1CCC(C#N)(NC(=O)[C@H](CC(C)(C)C)NC(=O)N2CCOCC2)CC1 next.
y

* * *

Recorded Growth Rate for the following molecules
Test system: HEK-293T
measurement-notes: Incucyte cell viability with HEK293T; further: unitless GR value; below 1 slowed growth and below 0 cell loss
Format: toxicity, cell-based
assay-conditions: human, 24 h, 10 µM, compound concentration 10 uM, replicate number 1
Numbered stars: 1 amine (or outer) side, 2 acyl side, 3 side chain; on linkers, the order of the positions; unused ones are H or OH. Bridge positions count the residues as written; N and C are the ends. Square brackets hold non-standard residues; d marks the D form. Peptide text beside a SMILES is read from it. I, II: the chains in the order shown. Hexamethylenediamine = C(CCCN[*:2])CCN[*:1]; Dip = N[C@H](C(=O)O)C(c1ccccc1)c1ccccc1; Chg = N[C@H](C(=O)O)C1CCCCC1; NMeA = CN[C@@H](C)C(=O)O

{"molecule": "CC(C)C(=O)N[C@@H]1CCN(C(=O)Nc2nc3c(s2)-c2nc(-c4ccccc4Cl)ncc2CC3)C1", "Growth Rate": 0.37}
{"molecule": "CN[C@@H](C)C(=O)N[C@H](C(=O)N1CCC[C@H]1C(=O)N[C@H](C(=O)NCCCCCCNC(=O)[C@@H](NC(=O)[C@@H]1CCCN1C(=O)[C@@H](NC(=O)[C@H](C)NC)C1CCCCC1)C(c1ccccc1)c1ccccc1)C(c1ccccc1)c1ccccc1)C1CCCCC1 (I: H-[NMeA][Chg]P[Dip] / II: H-[NMeA][Chg]P[Dip]; linker I:C-II:C via Hexamethylenediamine)", "Growth Rate": -0.23}
{"molecule": "CC(C)S(=O)(=O)c1ccccc1Nc1nc(N[C@@H]2CCCN(CCCCCCCNC(=O)COc3cccc4c3C(=O)N(C3CCC(=O)N(C)C3=O)C4=O)C2)ncc1Cl (some centres undefined)", "Growth Rate": -0.27}

As a next step, examine the molecule that follows.
I would be grateful if you could share the reported Growth Rate for C=CC(=O)Nc1cccc(C(=O)Nc2ccc(Nc3cc(-c4c(-c5ccc(F)cc5)nc(SC)n4C)ccn3)cc2)c1 .
0.57

* * *

Recorded Growth Rate for the following compounds
System: HEK-293T
measurement-notes: Incucyte cell viability with HEK293T; further: unitless GR value; below 1 slowed growth and below 0 cell loss
Type: toxicity, cell-based
assay-conditions: human, 24 h, 10 µM, compound concentration 10 uM, replicate number 1
Field format: numeric only.

Answered examples (3):
{"smiles-data": "Cc1c(CN2CCC3(CC2)CN(c2ncnc4sc(CC(F)(F)F)cc24)C3)ccc2c1cc(C#N)n2CC(N)=O", "experimental-system": "HEK-293T", "endpoint-value": 0.69}
{"smiles-data": "CN(C)C(=O)Cn1cc(-c2nc([C@@](C)(c3ccc(-c4cnc(N)nc4)cc3)C3CC3)no2)cn1", "experimental-system": "HEK-293T", "endpoint-value": 0.96}
{"smiles-data": "CN1CCN(C(=O)Cc2ccc(N/C(=C3\\C(=O)Nc4cc(Cl)ccc43)c3ccccc3)cc2)CC1", "experimental-system": "HEK-293T", "endpoint-value": 0.8}

I would be grateful if you could share the reported Growth Rate for OC(c1ccc(-c2ccc(CN3CCN(Cc4ccncc4)CC3)cc2)c(F)c1)(C(F)(F)F)C(F)(F)F .
0.09

* * *

Recorded Growth Rate for the following molecules
System: HEK-293T
measurement-notes: Incucyte cell viability with HEK293T; further: unitless GR value; below 1 slowed growth and below 0 cell loss
Format: toxicity, cell-based
assay-conditions: human, 24 h, 10 µM, compound concentration 10 uM, replicate number 2
Field format: numeric only.

Answered examples (3):
{"molecule": "COc1cc(N)c(Cl)cc1C(=O)NC1CN2CCC1CC2.Cl (stereo not drawn)", "Growth Rate": 0.38}
{"molecule": "CC[C@H](Nc1ncnc2[nH]cnc12)c1nc2cccc(F)c2c(=O)n1-c1ccccc1 [IDELALISIB]", "Growth Rate": 0.36}
{"molecule": "Cc1ccc2c(NS(=O)(=O)c3ccccc3Cl)cccc2c1Oc1ncccc1-c1ccnc(N[C@H]2CCCNC2)n1.Cl", "Growth Rate": 0.55}

Lab note: need Growth Rate for CCN1CCN(Cc2ccc(Nc3ncc(F)c(-c4cc(F)c5nc(C)n(C(C)C)c5c4)n3)nc2)CC1 [ABEMACICLIB] on HEK-293T, anyone have it?
0.44

Try COc1ccc(CC[C@@H](OC(=O)[C@@H]2CCCCN2C(=O)[C@H](c2cc(OC)c(OC)c(OC)c2)C2CCCCC2)c2cccc(OCCN3CCOCC3)c2)cc1OC next.
0.24

* * *

Tested on: U2OS
measurement-notes: Incucyte cell viability with U2OS; further: unitless GR value; below 1 slowed growth and below 0 cell loss
Assay type: toxicity, cell-based
assay-conditions: human, 18 h, 10 µM, compound concentration 10 uM, replicate number 2
Give Condition met when the value for Growth Rate is at least 0.8. Give Condition not met when it is less.

Example results:
{"compound": "CN1CCN(c2ccc(-n3cc(-c4ccncc4OCC4CCNCC4)cn3)cc2)CC1", "experimental-system": "U2OS", "label-value": "Condition not met"}
{"compound": "C[S+](C)[O-] [DIMETHYL SULFOXIDE]", "experimental-system": "U2OS", "label-value": "Condition not met"}
{"compound": "C[C@@]1(Cc2ccc(C#N)cc2)C(=O)N(c2cc(Cl)cc(Cl)c2)c2ncc(C(=O)NC3(c4nc(C5CCC5)no4)CC3)n21", "experimental-system": "U2OS", "label-value": "Condition not met"}
{"compound": "COc1cc(C(=O)NCCOCCOCCOCC(=O)N[C@H](C(=O)N2C[C@H](O)C[C@H]2C(=O)NCc2ccc(-c3scnc3C)cc2)C(C)(C)C)ccc1Nc1ncc(C(F)(F)F)c(Oc2cccc3c2C(=O)CC3)n1", "experimental-system": "U2OS", "label-value": "Condition not met"}
{"compound": "COC[C@@H](CC(C)C)NC1=N/C(=C\\c2ccc3ncsc3c2)C(=O)N1C", "experimental-system": "U2OS", "label-value": "Condition not met"}
{"compound": "Cc1cn([C@@H](C)CC#N)c(=O)c2cc(Cn3nc(C(F)F)cc3Cl)nn12", "experimental-system": "U2OS", "label-value": "Condition met"}
{"compound": "C=CC[C@@H]1/C=C(\\C)C[C@H](C)C[C@H](OC)[C@H]2O[C@@](O)(C(=O)C(=O)N3CCCC[C@H]3C(=O)O[C@H](/C(C)=C/[C@@H]3CC[C@@H](O)[C@H](OC)C3)[C@H](C)[C@@H](O)CC1=O)[C@H](C)C[C@@H]2OC.O", "experimental-system": "U2OS", "label-value": "Condition met"}
{"compound": "CN1[C@@H](CC(=O)c2ccccc2)CCC[C@H]1C[C@H](O)c1ccccc1.Cl [LOBELINE HYDROCHLORIDE]", "experimental-system": "U2OS", "label-value": "Condition met"}

Please check the record O=C1C[C@@H]2OCC=C3CN4CC[C@]56c7ccccc7N1[C@H]5[C@H]2[C@H]3C[C@H]46 and state if its Growth Rate is at or above 0.8.
Condition not met

Try CC(=O)Nc1c(F)cc(C(=O)N[C@H]2CC[C@H](O)CC2)cc1O[C@@H](C)c1ccccc1 next.
Condition met

Try CC(C)CC(=O)Nc1cncc(-c2ccc3[nH]nc(-c4nc5c(-c6cccc(F)c6)cncc5[nH]4)c3c2)c1 next.
Condition not met

Try COc1cnccc1Nc1nc(-c2nn(Cc3c(F)cc(OCCO)cc3F)c3ccccc23)ncc1OC next.
Condition not met

Try O=C1COc2cc(C(=O)N(Cc3ccc(C(=O)Nc4ccncn4)cc3)C3CC3)ccc2N1 next.
Condition not met

Try CCN(c1ccccc1)c1cc(NC)[n+](C)c(C)n1.[Cl-] next.
Condition met

Try Fc1ccc(-c2c3cccc(C(F)(F)F)c3nn2Cc2ccc(F)cc2Cl)cc1 next.
Condition met

Source of measurements: ChEMBL document CHEMBL5303304
